assay: Protein binding rate test (human serum, equilibrium dialysis); assay type: in vitro ADME; conditions: test compound 0.001 mmol/L, equilibrium dialysis 37° C. 6 hours
Classify as follows. Reported fraction unbound at 6 h, 0.001 mmol/L greater than or equal to 0.4: 1. Reported fraction unbound at 6 h, 0.001 mmol/L below: 0.

**Q:** Does fraction unbound at 6 h, 0.001 mmol/L meet or surpass 0.4 for Cc1cc(N2CC(C)(C)N[C@H]3CCCC[C@@H]32)ccc1OC(F)(F)CO ?
**A:** 1

Further cases:
**Q:** Tell me whether fraction unbound at 6 h, 0.001 mmol/L is at least 0.4 here: CC1(C)CN(c2cc(F)c(OCCO)c(F)c2)[C@H]2CCCC[C@@H]2N1
**A:** 1

**Q:** Decide: fraction unbound at 6 h, 0.001 mmol/L of COc1cc(N2CC(C)(C)N[C@H]3CCCC[C@@H]32)ccc1OC(F)(F)CO >= 0.4?
**A:** 1

**Q:** Is fraction unbound at 6 h, 0.001 mmol/L for CC1(C)CN(c2cc(Cl)c(OC(F)(F)CO)cc2F)[C@@H]2CCCC[C@H]2N1 at or above 0.4?
**A:** 0

###

biological target: serotonin (5-HT) uptake (Rattus norvegicus, UniProt P31652); construct: used as crude synaptosomal fraction; from tissue; host or cells: rat frontal cortex, crude synaptosomal fraction; experiment: Serotonin (5-HT) uptake inhibitory activity in rat brain synaptosome; format: biochemical; settings: rat frontal cortex synaptosome, tritium-labeled 5-HT 8 nM; read-out: IC50 (nM), serotonin (5-HT) uptake inhibition
Sequence (P31652 whole entry): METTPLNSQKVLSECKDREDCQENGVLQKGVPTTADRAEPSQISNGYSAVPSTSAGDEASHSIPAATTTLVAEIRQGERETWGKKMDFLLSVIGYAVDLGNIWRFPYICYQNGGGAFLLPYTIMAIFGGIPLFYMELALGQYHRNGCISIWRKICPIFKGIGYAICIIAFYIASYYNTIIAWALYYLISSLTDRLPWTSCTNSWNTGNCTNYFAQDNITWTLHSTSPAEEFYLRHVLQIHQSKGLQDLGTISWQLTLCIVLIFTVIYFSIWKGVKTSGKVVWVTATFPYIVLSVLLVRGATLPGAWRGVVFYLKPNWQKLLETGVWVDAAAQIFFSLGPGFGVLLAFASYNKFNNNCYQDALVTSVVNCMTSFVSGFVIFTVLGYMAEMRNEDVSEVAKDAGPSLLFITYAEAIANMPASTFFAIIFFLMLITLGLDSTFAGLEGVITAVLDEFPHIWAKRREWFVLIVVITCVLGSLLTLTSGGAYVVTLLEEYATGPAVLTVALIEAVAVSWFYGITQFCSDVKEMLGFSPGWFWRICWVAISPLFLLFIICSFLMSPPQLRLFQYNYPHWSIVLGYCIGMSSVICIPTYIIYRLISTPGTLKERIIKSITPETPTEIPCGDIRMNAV
Give measured IC50 for each item. Keep answers brief.

# example entries with known answers
**Q:** Under serotonin (5-HT) uptake (Rattus norvegicus, UniProt P31652), report IC50 for Cc1cc(N2CC3(CCC3)N[C@H]3CCCC[C@@H]32)cc(F)c1OCCO
**A:** 5.8 nM

**Q:** Fetch value of IC50 on serotonin (5-HT) uptake (Rattus norvegicus, UniProt P31652) for CC1(C)CN(c2cc(F)c(OCCO)c(F)c2)[C@H]2CCCC[C@@H]2N1 .
**A:** 8.9 nM

**Q:** Fetch value of IC50 on serotonin (5-HT) uptake (Rattus norvegicus, UniProt P31652) for CC1(C)CN(c2cc(F)c(OCCO)c(F)c2)[C@H]2CCCC[C@H]2N1 .
**A:** 60.1 nM

Okay, next one:
**Q:** Give IC50; test system serotonin (5-HT) uptake (Rattus norvegicus, UniProt P31652); compound Cc1cc(N2CC(C)(C)N[C@@H]3CCCC[C@@H]32)cc(F)c1OC(F)(F)CO
**A:** 22.9 nM

###

molecular target: CYP2C9 (Homo sapiens); construct: a human liver microsome solution containing three CYP-specific substrates; from tissue; host or cells: human liver microsomes; test: CYP inhibition test (1): inhibition rate (%) at one concentration, CYP2C9; type: in vitro ADME; conditions: human liver microsomes, pH 7.4, probe diclofenac (0.005 mmol/L); test compound 0.01 mmol/L, human liver microsome 0.1 mg/mL, substrate diclofenac, 37° C. 10 minutes; read-out: inhibition rate (%) 2C9
Sequence (P11712 whole entry): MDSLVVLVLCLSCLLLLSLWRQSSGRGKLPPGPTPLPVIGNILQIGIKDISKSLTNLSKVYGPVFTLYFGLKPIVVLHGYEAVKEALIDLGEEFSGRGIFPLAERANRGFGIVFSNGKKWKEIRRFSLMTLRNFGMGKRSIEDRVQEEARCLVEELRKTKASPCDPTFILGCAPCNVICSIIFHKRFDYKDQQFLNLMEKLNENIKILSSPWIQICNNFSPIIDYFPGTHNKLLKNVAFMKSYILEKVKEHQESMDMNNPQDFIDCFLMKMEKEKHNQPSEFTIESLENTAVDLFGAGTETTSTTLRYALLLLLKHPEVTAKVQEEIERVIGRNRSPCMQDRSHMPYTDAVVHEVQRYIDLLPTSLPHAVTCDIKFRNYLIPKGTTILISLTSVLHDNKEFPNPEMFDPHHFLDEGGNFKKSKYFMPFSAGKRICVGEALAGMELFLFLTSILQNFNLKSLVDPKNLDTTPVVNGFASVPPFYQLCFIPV
Provide the reported inhibition at 10 min, 0.01 mmol/L of each item.
Give bare numbers, in %.

**Q:** Give inhibition at 10 min, 0.01 mmol/L for Cc1c(OC(F)(F)CO)ccc(N2CC(C)(C)N[C@H]3CCCC[C@@H]32)c1F
**A:** 8.9

**Q:** Please report inhibition at 10 min, 0.01 mmol/L for the following compound: CC1(C)CN(c2cc(Cl)c(OC(F)(F)CO)cc2F)[C@H]2CCCC[C@@H]2N1
**A:** 9.1

Provide each entry's inhibition at 10 min, 0.01 mmol/L from the list below.
1. CC1(C)CN(c2ccc(OCCO)cc2Cl)[C@H]2CCCC[C@H]2N1
2. CC1(C)CN(c2ccc(OC(F)(F)CO)c(Cl)c2F)[C@@H]2CCCC[C@H]2N1

**A:**
1. 10.2
2. 2

# batch: return inhibition at 10 min, 0.01 mmol/L for each of the 3 compounds below
1. CC1(C)CN(c2ccc(OCCO)c3occc23)[C@H]2CCCC[C@H]2N1
2. CC1(C)CN(c2ccc(OCCO)c(Cl)c2)[C@H]2CCCC[C@H]2N1
3. COc1cc(N2CC3(CCC3)N[C@H]3CCCC[C@@H]32)ccc1OCCO

**A:**
1. -8.3
2. -11.4
3. 7.5

Quick request: inhibition at 10 min, 0.01 mmol/L for each listed item, please.
1. OCCOc1c(F)cc(N2CC3(CCC3)N[C@H]3CCCC[C@@H]32)cc1Cl
2. Cc1c(N2CC(C)(C)N[C@@H]3CCCC[C@@H]32)ccc(OC(F)(F)CO)c1F

**A:**
[-6.4, 9.3]

Please go through the list and note inhibition at 10 min, 0.01 mmol/L for each compound.
1. CC1(C)CN(c2ccc(OCCO)c(Br)c2F)[C@H]2CCCC[C@H]2N1
2. OCCOc1ccc(N2CC3(CCC3)N[C@H]3CCCC[C@@H]32)cc1
3. CC1(C)CN(c2ccc(OC(F)(F)CO)c(F)c2F)[C@H]2CCCC[C@H]2N1
4. CC1(C)CN(c2ccc(OCCO)c3occc23)[C@@H]2CCCC[C@@H]2N1
5. CC1(C)CN(c2ccc(OCCO)c(F)c2)[C@H]2CCCC[C@H]2N1

**A:**
1. 1.1
2. 8.1
3. 4.8
4. -7.6
5. 9.2

# batch size: 6; output inhibition at 10 min, 0.01 mmol/L per entry
1. CC1(C)CN(c2ccc(OC(F)(F)CO)cc2F)[C@H]2CCCC[C@H]2N1
2. Cc1cc(N2CC(C)(C)N[C@@H]3CCCC[C@@H]32)ccc1OC(F)(F)CO
3. Cc1cc(N2CC(C)(C)N[C@@H]3CCCC[C@@H]32)cc(F)c1OC(F)(F)CO
4. CC1(C)CN(c2cc(F)c(OCCO)cc2F)[C@H]2CCCC[C@H]2N1
5. CC1(C)CN(c2cc(F)c(OC(F)(F)CO)cc2F)[C@H]2CCCC[C@H]2N1
6. C[C@@H]1CN(c2ccc(OC(F)(F)CO)c(Cl)c2)[C@H]2CCCC[C@@H]2N1

**A:**
6.8
-0.7
2.8
1.7
0.6
5.8

Could you tell me inhibition at 10 min, 0.01 mmol/L for each of these compounds? They are listed below.
1. CC1(C)CN(c2cc(Cl)c(OC(F)(F)CO)cc2F)[C@@H]2CCCC[C@H]2N1
2. Cc1c(OC(F)(F)CO)ccc(N2CC(C)(C)N[C@@H]3CCCC[C@@H]32)c1F
3. Cc1c(OC(F)(F)CO)ccc(N2CC(C)(C)N[C@H]3CCCC[C@H]32)c1F

**A:**
1. 12.6
2. 15.8
3. 14.8

Please give inhibition at 10 min, 0.01 mmol/L for each item listed below.
1. CC1(C)CN(c2cc(Br)c(OCCO)cc2F)[C@H]2CCCC[C@H]2N1
2. CC1(C)CN(c2cc(F)c(OC(F)(F)CO)cc2F)[C@H]2CCCC[C@@H]2N1
3. Cc1cc(N2CC3(CCC3)N[C@H]3CCCC[C@@H]32)cc(F)c1OCCO

**A:**
4.6
7.9
13.6

###

molecular target: serotonin (5-HT) uptake (Rattus norvegicus, UniProt P31652); construct: used as crude synaptosomal fraction; from tissue; host or cells: rat frontal cortex, crude synaptosomal fraction; assay: Serotonin (5-HT) uptake inhibitory activity in rat brain synaptosome; type: biochemical; conditions: rat frontal cortex synaptosome, tritium-labeled 5-HT 8 nM; read-out: IC50 (nM), serotonin (5-HT) uptake inhibition
REPORTED_METRIC: log10(IC50) (log10 of the value in nM)
Scale type: logarithmic (base 10). Underlying IC50 unit: nM.

Known log10(IC50) results, listed for orientation:
**Q:** Specify reported log10(IC50) for the compound shown: OCCOc1ccc(N2CC3(CCC3)N[C@H]3CCCC[C@@H]32)cc1
**A:** 1.00

**Q:** Check the records and state log10(IC50) for CC1(C)CN(c2cc(F)c(OCCO)c(F)c2)[C@@H]2CCCC[C@H]2N1
**A:** 1.85

**Q:** For the compound Cc1cc(N2CC(C)(C)N[C@@H]3CCCC[C@@H]32)ccc1OC(F)(F)CO , give its measured log10(IC50) value.
**A:** 1.76

**Q:** Determine its reported log10(IC50): COc1cc(N2CC(C)(C)N[C@H]3CCCC[C@@H]32)ccc1OC(F)(F)CO
**A:** 1.26

**Q:** Supply recorded log10(IC50) for CC1(C)CN(c2ccc(OCCO)c(Br)c2F)[C@H]2CCCC[C@H]2N1 here.
**A:** 0.71

Hello, I would appreciate it if you could give log10(IC50) for each entry below.
1. CC1(C)CN(c2cc(Cl)c(OC(F)(F)CO)cc2F)[C@@H]2CCCC[C@H]2N1
2. Cc1c(OC(F)(F)CO)ccc(N2CC(C)(C)N[C@@H]3CCCC[C@@H]32)c1F
3. C[C@@H]1CN(c2cc(F)c(OCCO)c(Cl)c2)[C@H]2CCCC[C@@H]2N1
4. CC1(C)CN(c2ccc(OC(F)(F)CO)c(Cl)c2F)[C@@H]2CCCC[C@H]2N1
5. CC1(C)CN(c2ccc(OC(F)(F)CO)c(F)c2F)[C@H]2CCCC[C@H]2N1
6. CC1(C)CN(c2cc(F)c(OC(F)(F)CO)cc2F)[C@H]2CCCC[C@@H]2N1
7. Cc1c(OC(F)(F)CO)ccc(N2CC(C)(C)N[C@H]3CCCC[C@@H]32)c1F
8. CC1(C)CN(c2ccc(OC(F)(F)CO)cc2)[C@@H]2CCCC[C@H]2N1

**A:**
1: 1.99; 2: 0.85; 3: 0.86; 4: 1.80; 5: 0.94; 6: 1.63; 7: 1.57; 8: 1.95
